Ref: ChEMBL document CHEMBL1201862

tested on: SF-295; test: NCI tumour cell line growth inhibition, 48 h
Active and inactive are the calls of the source. No stated cut-off is given here; in the data, active = GI50 up to about 1.1 µM and inactive = higher.
Possible outcomes: True for active, False for inactive

| Molecule | Experimental system | Class label |
| --- | --- | --- |
| CN(C)CCNc1c2ccccc2c2c3c(cccc13)C(=O)N(CCN(C)C)C2=O | SF-295 | True |
| CC(=O)c1c(-c2cccc3ccccc23)c(C#N)c(=S)n(C2OC(CO)C(O)C(O)C2O)c1C (centres undefined) | SF-295 | False |
| C=CCN1C(=O)CC(=O)N(NC2=NNC3(C(=O)N2)c2ccccc2-c2ccccc23)C1=S | SF-295 | False |
| COC(=O)/C(=N\NC(N)=O)C(C#N)c1ccccc1 (centres undefined) | SF-295 | False |
| COc1cc([N+](=O)[O-])c(S(=O)(=O)O)cc1-n1nc(-c2ccccc2)n[n+]1-c1cc(S(=O)(=O)[O-])c([N+](=O)[O-])cc1OC | SF-295 | False |
| CC1OC2OC3C(OCC(O)C3O)OC(=O)[C@]34CCC(C)(C)CC3C3=CCC5[C@@]6(C)C[C@H](O)[C@H](OC7OC(CO)C(O)C(O)C7OC7OCC(OC(=O)CC(C)(O)CC(=O)OC1C(O)C2O)C(O)C7O)[C@@](C)(CO)C6CC[C@@]5(C)[C@]3(C)CC4 (some centres undefined) | SF-295 | False |
| COC(=O)c1nc2c3c(cccc3c1C(=O)OC)Nc1ccccc1-2 | SF-295 | False |
| CN(Cc1ccccc1)C(=NC#N)N(C)Cc1ccccc1 | SF-295 | False |
| COC(=O)[C@]1(C)CCC[C@]2(C)[C@@H](CCC(=O)C(C)C)[C@]3(C=O)O[C@@H]3C[C@H]21 | SF-295 | False |
